experiment: NCI Yeast Anticancer Drug Screen. Data for the mec2-1 strain (AID 157); settings: S. cerevisiae mec2-1 strain, at 50.0 µM, stronger effect = higher value
This is part of a sample that, as a whole, favours compounds with a hit. Of some 79,000 tested, about 15% had one in any assay.
Reported growth inhibition values for the following molecules.
Please give a number only; it is taken to be in %.

Some molecules with recorded growth inhibition:
MOLECULE | UNIT TEXT | growth inhibition
CCC(c1cccc(OC)c1)C(C(=O)O)c1ccc(OC)cc1 (stereo not drawn) | % | 17.5
NC1(C(=O)O)CCCCC1 | % | -7.5
CCCCCCCCCCP(=O)(O)CCCCCCCCCC | % | -3.8
CN(C)c1ccc(/C(=N\O)c2cc[n+](C)cc2)cc1 | % | -23.4
CCCCOC(=O)C(C)OC(=O)Nc1ccccc1 (stereo not drawn) | % | 23.4
CSc1nc2c(cnn2C)c(=O)[nH]1 | % | -1.95

Dear colleague, I am looking for the recorded growth inhibition of the following molecule: CCOC(=O)c1cc(C)nc2c1c(=O)n(-c1ccccc1)c(=O)n2CCCCN1CCN(c2ccccc2)CC1 -13.2
